experiment: SMARCA2 (BRM) function activators, primary screen, cell-based, luminescence, high throughput (AID 652017); conditions: MG213 cells, MMTV-luciferase reporter, dexamethasone, overnight; at 9.1 µM;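 note: 0% = vehicle wells and 100% = reference activator wells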
Screen size: about 370,000 compounds; about 3,800 (1%) were called active. Cut-off read from the data, not from the text of the source: active = activation above about 7.8%; inactive = the rest. This excerpt belongs to a sample that is enriched for actives.
Outcome codes: active, inactive

COMPOUND | LABEL CLASS
CCN(CC)CCCNC(=O)Cn1cnc2sc(C)c(S(=O)(=O)N3CCN(c4ncccn4)CC3)c2c1=O | inactive
CC(=O)Nc1nc2ncccn2c1-c1ccc(C(F)(F)F)cc1 | inactive
CCN(CC)CCNC(=O)c1sc2ncn(CC(=O)Nc3ccc(C)c(Cl)c3)c(=O)c2c1C | active
CCN(CC)CCNC(=O)Cn1cnc2sc(C)c(S(=O)(=O)N3CCOCC3)c2c1=O | inactive
Cc1nn(C(C)(C)C)c(OC(=O)CC(C)C)c1S(=O)(=O)c1ccccc1 | inactive

* * *

assay: SMARCA2 (BRM) function activators, primary screen, cell-based, luminescence, high throughput (AID 652017); settings: MG213 cells, MMTV-luciferase reporter, dexamethasone, overnight; at 9.1 µM; hits give high values;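 note: 0% = vehicle wells and 100% = reference activator wells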
Hit rate of the full screen: of about 370,000 compounds, about 3,800 (1%) were called active. Shown is part of a subset that was picked to be rich in actives.
Each item that follows carries a reported activation.

COMPOUND | activation [%]
Nc1ccc(N=Nc2ccccc2Cl)c(N)n1 | 7.92
COc1ccc(CN2CC[C@H]3C=CC[C@@H](C(=O)N4CCOCC4)[C@H]3C2=O)cc1OC | 1.07
COc1ccc(OC)c2c(N)c(C#N)c(C(F)(F)C(F)(F)F)nc12 | 1.9
Cc1cc(C)c2nc3nc(C)cc(C)c3c(N)c2c1 | 22.7
CC(C)C[C@H]1CNC(=O)C(=O)N1C[C@H]1CCCN1C[C@H](Cc1ccc(O)cc1)N1C[C@H](CC(C)C)N(CC2CCCCCC2)C(=O)C1=O | 8.41
Cc1cc2oc3ccc(NCCC4CCCN4C)cc3c(=O)c2cc1C (stereo unspecified) | 8.67
COC(=O)[C@]12C[C@H](CC(=O)NCc3cccc4ccccc34)C(=O)N(CCc3ccc(OC)c(OC)c3)C1=C[C@H](C1CCCC1)O[C@@H]2C | -1.03
CCc1ccccc1N1CN(Cc2ccco2)CNC1=S | -4.87
Cc1ccc(-n2c(COc3ccccc3)nnc2SCC(=O)Nc2ccc3c(c2)OCCO3)cc1 | -5.34
CC(=O)c1cc(CN2CCC(n3nccc3NC(=O)c3ccccc3Cl)CC2)cs1 | -2.24
CCOC(=O)C1=C(C)NC2=C(C(=O)CC(C)(C)C2)C1c1ccc2c(c1)OCO2 (stereo unspecified) | -5.79
C=CCN(C(=O)[C@@H](CCCC)[C@@H](O)c1ccc(Cl)cc1)c1ccccc1 | -3.35
Cc1ccccc1CN1CCCCC(NC(=O)Nc2ccccc2F)C1=O (stereo unspecified) | -2.59
O=C(COc1cc(Cl)c(Cl)cc1Cl)NC(=O)NC1CCCC1 | -2.73
CN(C)S(=O)(=O)c1ccc2oc(SCC(=O)Nc3ccccc3F)nc2c1 | 12
CNC(=O)CN1C(=O)NC(c2ccccc2)(c2ccccc2)C1=O | -2.01
Cc1ccc(-n2c(SCC(=O)N3CCC(C(=O)O)CC3)nc3ccccc3c2=O)cc1C | 9
O=C(CSc1nc2ccccc2c(=O)n1-c1ccccc1F)N1CCOCC1 | -2.52
O=C(CSc1n[nH]c(-c2cccnc2)n1)Nc1ccnc2ccccc12 | -1.59
COC(=O)[C@]12C[C@H](CC(=O)NCCc3ccccc3OC)C(=O)N(Cc3ccco3)C1=C[C@H](C(C)C)O[C@@H]2C1CC1 | -4.32
COC(=O)[C@@]12CCCCC=C1N(CCc1ccc(Cl)cc1)C(=O)[C@H]2CC(=O)NCc1ccc(OC)c(OC)c1 | -0.41
COc1ccc(S(=O)(=O)N(C)C)cc1NC(=O)CSc1ncccn1 | 1.65
Clc1ccc(-n2c(SC/C=C/c3ccccc3)nnc2-c2ccco2)cc1 | -3.27
O=C1NC[C@H](Cc2ccc(O)cc2)N(C[C@@H]2CCCN2C[C@H](Cc2ccccc2)N2C[C@H](Cc3ccccc3)N(CC3CCCCC3)C(=O)C2=O)C1=O | -2.98
CN1CCC[C@@H]1CCO[C@](C)(c1ccccc1)c1ccc(Cl)cc1 | -5.64
COCOc1cccc(CN2CCC(C)(Oc3ccc(SC)cc3)C2)c1 (stereo unspecified) | -2.3
Cc1cccc(CSc2ccc(-c3cccs3)nn2)c1 | 9.78
CN(C)C(=S)N=c1ssc(=S)n1Cc1ccco1 | 8.22
O=C(CSc1nc2ccccc2[nH]1)c1cccs1 | 8.32
C=CCN(C)CC#Cc1ccccc1 | 0.78
CCCCOc1ccc(Cl)cc1CSc1nncn1N | 1.44
COc1ccc(-c2cc(-c3ccc(N)cc3)nc(N)c2C#N)cc1OC | 8.11
Cc1cc(C)c2nc(NC(=O)C3CCCO3)sc2c1 (stereo unspecified) | 7.96
COc1ccccc1CN(C)C(=O)c1cc2ccccc2o1 | -0.29
COc1ccc(-c2nc3n(c(=O)c2C#N)CCS3)c(OC)c1 | -2.7
CC(C)C[C@H]1CNC(=O)C(=O)N1C[C@@H]1CCCN1C[C@H](Cc1ccccc1)N1C[C@H](CC(C)C)N(CC2CCCCCC2)C(=O)C1=O | -3.56
COc1ccc(S(=O)(=O)N2CCOCC2)cc1NC(=O)Cc1coc2cc(C)ccc12 | -0.89
Cc1ccccc1CN1CCNC(=O)C1CC(=O)NCCC1=CCCCC1 (stereo unspecified) | 5.02
CC(=O)N1CCCN(C2=Nc3ccccc3Sc3ccccc32)CC1 | -0.9
COc1ccc(-n2c(SCC(=O)Nc3ccc(C)c(Cl)c3)nc3ccccc3c2=O)cc1 | -5.45
CC(C)(C)c1ccc(CSc2nnc(-c3cccs3)o2)cc1 | -1.53
